biological target: Heptosyltransferase I (HepI) WT (Escherichia coli, UniProt P24173); construct: made in house; host or cells: E. coli One Shot BL-21-AI; assay: HepI inhibition, ADP/NADH coupled assay (wild type); assay type: biochemical, E. coli K12; conditions: HepI WT, 10 μM ODLA, inhibitor varied
Sequence (P24173 whole entry): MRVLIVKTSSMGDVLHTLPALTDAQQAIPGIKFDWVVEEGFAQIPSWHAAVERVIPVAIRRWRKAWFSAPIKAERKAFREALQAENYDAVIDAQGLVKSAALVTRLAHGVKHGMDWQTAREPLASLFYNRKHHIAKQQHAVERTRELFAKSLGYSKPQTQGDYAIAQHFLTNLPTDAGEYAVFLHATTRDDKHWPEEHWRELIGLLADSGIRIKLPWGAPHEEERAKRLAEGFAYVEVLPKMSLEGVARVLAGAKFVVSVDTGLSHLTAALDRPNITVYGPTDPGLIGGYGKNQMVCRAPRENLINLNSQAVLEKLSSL
Record form. Attribute: Ki. Fill in for each entry.
Answers are plain numbers, in nM.

>>> value_observed("NC[C@H]1O[C@H](O[C@H]2[C@H](O)[C@@H](O[C@H]3O[C@H](CO)[C@@H](O)[C@H](N)[C@H]3O)[C@H](N)C[C@@H]2N)[C@H](N)[C@@H](O)[C@@H]1O")
990

Now look at this entry.
**Query** Fill in Ki for [H]/N=C(/N)N[C@H]1[C@H](O)[C@@H](O)[C@H](O[C@@H]2O[C@@H](C)[C@](O)(C=O)[C@H]2O[C@@H]2O[C@@H](CO)[C@H](O)[C@@H](O)[C@@H]2NC)[C@@H](N/C(N)=N\[H])[C@@H]1O tested with Heptosyltransferase I (HepI) WT (Escherichia coli, UniProt P24173).
**Result** 595

----------
molecular target: Heptosyltransferase I (HepI) WT (Escherichia coli); construct: made in house; host or cells: E. coli One Shot BL-21-AI; test: HepI inhibition, ADP/NADH coupled assay (wild type); type: biochemical, E. coli K12; settings: HepI WT in presence of inhibitor
I'd be grateful if you could share measured kcat for these entries.
Answers are plain numbers, in s⁻¹.

Fill in kcat for each of the 2 compounds listed.
1. NCC[C@H](O)C(=O)N[C@@H]1C[C@H](N)[C@@H](O[C@H]2O[C@H](CN)[C@@H](O)[C@H](O)[C@H]2O)[C@H](O)[C@H]1O[C@H]1O[C@H](CO)[C@@H](O)[C@H](N)[C@H]1O
2. [H]/N=C(/N)N[C@H]1[C@H](O)[C@@H](O)[C@H](O[C@@H]2O[C@@H](C)[C@](O)(C=O)[C@H]2O[C@@H]2O[C@@H](CO)[C@H](O)[C@@H](O)[C@@H]2NC)[C@@H](N/C(N)=N\[H])[C@@H]1O

**Result**
[0.138, 0.162]

Quick request: kcat for each listed item, please.
1. NC[C@H]1O[C@H](O[C@H]2[C@H](O)[C@@H](O[C@H]3O[C@H](CO)[C@@H](O)[C@H](N)[C@H]3O)[C@H](N)C[C@@H]2N)[C@H](N)[C@@H](O)[C@@H]1O
2. NC[C@H]1O[C@H](O[C@H]2[C@H](O)[C@@H](O[C@H]3O[C@H](CO)[C@@H](O)[C@H](N)[C@H]3O)[C@H](N)C[C@@H]2N)[C@H](N)C[C@@H]1O

**Result**
1: 0.149; 2: 0.15

----------
biological target: HepI R120A (Escherichia coli, UniProt P24173, R120A); assay: HepI inhibition, ADP/NADH coupled assay (R120A mutant)
Sequence (P24173 whole entry R120A): as the sequence (P24173 whole entry) above, with R120A counted along it
reported metric: pKi
Give bare numbers, as −log10 of the molar value.

**Query** Quick one: give measured pKi for NC[C@H]1O[C@H](O[C@H]2[C@H](O)[C@@H](O[C@H]3O[C@H](CO)[C@@H](O)[C@H](N)[C@H]3O)[C@H](N)C[C@@H]2N)[C@H](N)C[C@@H]1O
**Result** 6.37
